Hello, the source for this data is patent US20090304692A1, in case you need it.

Would you mind telling me the reported pIC50 of each entry?
Molecular target: PI3K-γ (Homo sapiens, UniProt P48736)
Sequence (P48736 whole entry, species assumed): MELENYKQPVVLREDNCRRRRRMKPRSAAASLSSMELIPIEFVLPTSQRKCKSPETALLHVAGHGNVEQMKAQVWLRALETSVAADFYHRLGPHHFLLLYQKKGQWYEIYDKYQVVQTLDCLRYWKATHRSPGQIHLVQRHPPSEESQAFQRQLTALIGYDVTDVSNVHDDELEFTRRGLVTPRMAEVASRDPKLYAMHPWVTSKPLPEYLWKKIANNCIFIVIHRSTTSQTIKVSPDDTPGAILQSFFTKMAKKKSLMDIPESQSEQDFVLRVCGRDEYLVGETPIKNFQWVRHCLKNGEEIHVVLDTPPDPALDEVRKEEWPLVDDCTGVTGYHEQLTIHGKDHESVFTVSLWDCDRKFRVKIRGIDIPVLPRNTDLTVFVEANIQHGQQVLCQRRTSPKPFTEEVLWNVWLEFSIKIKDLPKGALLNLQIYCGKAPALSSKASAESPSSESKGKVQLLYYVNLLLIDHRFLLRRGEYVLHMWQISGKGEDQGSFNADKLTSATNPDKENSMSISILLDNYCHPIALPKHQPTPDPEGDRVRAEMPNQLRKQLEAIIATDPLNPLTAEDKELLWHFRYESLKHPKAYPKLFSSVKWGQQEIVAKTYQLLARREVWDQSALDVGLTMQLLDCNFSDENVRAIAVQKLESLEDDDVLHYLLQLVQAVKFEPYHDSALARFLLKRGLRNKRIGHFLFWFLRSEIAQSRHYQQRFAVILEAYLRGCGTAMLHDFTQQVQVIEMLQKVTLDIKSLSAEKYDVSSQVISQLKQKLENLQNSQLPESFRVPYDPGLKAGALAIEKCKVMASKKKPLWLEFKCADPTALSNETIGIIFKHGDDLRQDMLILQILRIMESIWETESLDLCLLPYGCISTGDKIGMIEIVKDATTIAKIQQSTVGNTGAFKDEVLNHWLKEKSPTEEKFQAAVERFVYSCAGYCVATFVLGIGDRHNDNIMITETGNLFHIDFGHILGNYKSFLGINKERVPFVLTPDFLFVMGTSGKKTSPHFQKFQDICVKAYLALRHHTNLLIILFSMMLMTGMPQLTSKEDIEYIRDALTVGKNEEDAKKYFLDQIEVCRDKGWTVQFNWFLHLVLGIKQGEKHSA
Test: PI3K-gamma fluorescence polarization assay
Conditions: read-out: IC50 PI3Kγ
// field semantics: pIC50 = negative decimal log of concentration (mol/L)

Qu. Using the record for `CC(=O)c1nc(-c2ccc(NC(=O)Nc3ccncc3)cc2)nc(N2CCOCC2)n1` , report its pIC50.
Ans. 7.00

Qu. Using the record for `O=C(Nc1ccc(C(=O)NCCN2CCCCC2)cc1)Nc1ccc(-c2nc(N3CCOCC3)nc(N3C4CCC3COC4)n2)cc1` , report its pIC50.
Ans. 7.42

Qu. Using the record for `Nc1ccc(NC(=O)Nc2ccc(-c3nc(N4CCOCC4)nc(N4CCOCC4)n3)cc2)cc1` , report its pIC50.
Ans. 7.80

Qu. Using the record for `CCc1nc(-c2ccc(NC(=O)Nc3ccc(C(=O)NC4CCN(C)CC4)cc3)cc2)nc(N2CCOCC2)n1` , report its pIC50.
Ans. 7.64

Qu. Using the record for `CN(C)CCNC(=O)c1ccc(NC(=O)Nc2ccc(-c3nc(N4CCOCC4)nc(N4CCOCC4)n3)cc2)cc1` , report its pIC50.
Ans. 8.15

Qu. Using the record for `COCCOc1nc(-c2ccc(NC(=O)Nc3ccc(C(=O)OC)cc3)cc2)nc(N2CCOCC2)n1` , report its pIC50.
Ans. 6.97

Qu. Using the record for `Cc1cc(NC(=O)Nc2ccc(-c3nc(N4CCOCC4)nc(N4CCOCC4)n3)cc2)ccn1` , report its pIC50.
Ans. 7.68

Qu. Using the record for `O=C(Nc1ccc(C(=O)N2CCCC2)cc1)Nc1ccc(-c2nc(C3CCOCC3)nc(N3C4CCC3COC4)n2)cc1` , report its pIC50.
Ans. 5.81

Qu. Using the record for `CN1CC2CN(c3nc(-c4ccc(NC(=O)Nc5ccncc5)cc4)nc(N4CCOCC4)n3)CC(C1)O2` , report its pIC50.
Ans. 6.15

Qu. Using the record for `CCc1nc(-c2ccc(NC(=O)Nc3ccc(N4CCC(N(C)C)CC4)cc3)cc2)nc(N2CCOCC2)n1` , report its pIC50.
Ans. 7.32

Qu. Using the record for `O=C(Nc1ccc(C(=O)O)cc1)Nc1ccc(-c2nc(-c3ccccc3)nc(N3CCOCC3)n2)cc1` , report its pIC50.
Ans. 7.24

Qu. Using the record for `O=C(Nc1ccncc1)Nc1ccc(-c2nc(N3CCNCC3)nc(N3CC4CCC(C3)O4)n2)cc1` , report its pIC50.
Ans. 5.83

Qu. Using the record for `CN(C)CCN1CCN(C(=O)c2ccc(NC(=O)Nc3ccc(-c4nc(N5CCOCC5)nc(N5CCOCC5)n4)cc3)cc2)CC1` , report its pIC50.
Ans. 8.52

Qu. Using the record for `O=C(Nc1ccc(-c2nc(N3CCOCC3)nc(N3C4CCC3COC4)n2)cc1)Nc1ccnc(Cl)c1` , report its pIC50.
Ans. 7.00

Qu. Using the record for `CC(=O)c1cccc(NC(=O)Nc2ccc(-c3nc(OC4CCOCC4)nc(N4CCOCC4)n3)cc2)c1` , report its pIC50.
Ans. 7.08
